These data points were gathered from patent US20240228506A1.

- assayed_system: GST-RIPK1 (recombinant GST-RIPK1 kinase domain (residues 1-327)) (Homo sapiens)
- Construct: recombinant GST-RIPK1 kinase domain (residues 1-327) enzyme
- Sequence (Q13546 1-327): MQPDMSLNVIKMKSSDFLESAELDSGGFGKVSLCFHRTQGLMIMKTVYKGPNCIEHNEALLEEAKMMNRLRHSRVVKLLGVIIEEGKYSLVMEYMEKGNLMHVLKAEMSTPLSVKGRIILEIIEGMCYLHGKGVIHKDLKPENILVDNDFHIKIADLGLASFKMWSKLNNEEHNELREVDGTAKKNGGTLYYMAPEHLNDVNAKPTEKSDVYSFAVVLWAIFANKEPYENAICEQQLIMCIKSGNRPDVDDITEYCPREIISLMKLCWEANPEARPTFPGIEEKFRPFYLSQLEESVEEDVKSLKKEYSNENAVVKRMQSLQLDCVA
- experimental_protocol: RIPK1-ADP-Glo enzymatic assay
- measurement_setup: 25 nM GST-RIPK1, 300 μM ATP, 3 μM dephosphorylated-MBP; 30 minutes pre-incubation, 150 minutes reaction; ten-point titration
- Description: The enzymatic activity of RIPK1 is measured using an assay derived from ADP-Glo kit (Promega™), which provides a luminescent-based ADP detection system. Specifically, the ADP generated by RIPK1 kinase is proportionally detected as luminescent signals in a homogenous fashion. In this context, the assessment of the inhibitory effect of small molecules (EC50) is measured by the effectiveness of the compounds to inhibit the ATP to ADP conversion by RIPK1. […]
quantity_kind: IC50 (nM)

# count of solved cases: 6
C#CC(C)(C)C(=O)N1C[C@@H]2C[C@H]1c1cncc(C#N)c1O2 [Compound 1-96]    148
CC1(C(=O)N2C[C@@H]3C[C@H]2c2cncc(C#N)c2O3)CCCC1(F)F (single isomer, unassigned) [Compound 1-38]    21
O=C(N1C[C@@H]2C[C@H]1c1cncc(C#Cc3ccccc3)c1O2)C12CCC(F)(CC1)C2 [Compound 2-97]    18
CC(C)(C(=O)N1C[C@@H]2C[C@H]1c1cncc(C#Cc3ccc(F)cc3)c1O2)C(F)F [Compound 2-41]    56
N#Cc1cncc2c1O[C@H]1C[C@@H]2N(C(=O)C23CCC(CC2)CC3)C1 [Compound 1-61]    34
Cc1ncc(C#Cc2cncc3c2O[C@H]2C[C@@H]3N(C(=O)C(C)(C)C(F)F)C2)c(C)n1 [Compound 2-95]    36

[I] O=C(N1C[C@@H]2C[C@H]1c1cncc(F)c1O2)C12CCC(F)(CC1)C2 [Compound 2-7]
[II] O=C(N1C[C@@H]2C[C@H]1c1cncnc1O2)C12CCC(F)(CC1)C2 [Compound 3-3]
Exercise: Lab log: flag the item ( I or II ) with the smaller IC50 figure. Label of pick, please.
Solution: I

[a] CC1(C(=O)N2C[C@@H]3C[C@H]2c2cncc(C#N)c2O3)CCCC(F)(F)C1 (single isomer, unassigned) [Compound 1-41]
[b] CC1(C(=O)N2C[C@@H]3C[C@H]2c2cncc(C#N)c2O3)CCC1 [Compound 1-12]
[c] N#Cc1cncc2c1O[C@H]1C[C@@H]2N(C(=O)C23CCC(C(F)(F)F)(CC2)C3)C1 [Compound 1-2]
[d] O=C(N1C[C@@H]2C[C@H]1c1cncc(C#Cc3cccnc3)c1O2)C12CCC(C(F)(F)F)(CC1)C2 [Compound 2-58]
[e] CN(C)C(C)(C)C(=O)N1C[C@@H]2C[C@H]1c1cncc(C#N)c1O2 [Compound 1-90]
Exercise: Write the entries in order, lowest recorded IC50 first. In your reply, arrange the labels in the requested order.
Solution: c, d, a, b, e
